test system: 317291-083-R-J1-PDC complex spheroid growth; assay: Anticancer human tumor 317291-083-R-J1-PDC patient-derived soft tissue sarcoma cell line growth inhibition [Asc]; conditions: second compound 0.949 µM; first compound 0.0316 µM; active compounds read low;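 also: compound exposure lasted seven days after spheroids formed for three days; 100% = DMSO vehicle control wells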
outcome.measure: viability, T/C (%)
Numbers only, in %.

**Q:** Hi! What's the reported viability, T/C for O=C(c1ccc(F)c(F)c1Nc1ccc(I)cc1F)N1CC(O)([C@@H]2CCCCN2)C1 + CCN1C(C(=O)NC23CCC(C(=O)O)(CC2)CC3)C(c2cccc(Cl)c2F)C2(C(=O)Nc3cc(Cl)ccc32)C12CCCCC2 on 317291-083-R-J1-PDC complex spheroid growth?
**A:** 114

Next:
**Q:** Lab note: need viability, T/C for C=CC(=O)N1CCN(c2nc(=O)n(-c3c(C)ccnc3C(C)C)c3nc(-c4c(O)cccc4F)c(F)cc23)C(C)C1 (configuration not stated) + CCN1C(C(=O)NC23CCC(C(=O)O)(CC2)CC3)C(c2cccc(Cl)c2F)C2(C(=O)Nc3cc(Cl)ccc32)C12CCCCC2 on 317291-083-R-J1-PDC complex spheroid growth, anyone have it?
**A:** 85.2
